Provenance of the data: the kinase profiling compilation of Christmann-Franck et al. (2016)

molecular target: PHKG2 (human); test: radiometric filter-binding kinase assay, Kinase HotSpot; conditions: compound 0.5 µM; ATP 10 µM
Quick reference for residual activity among some compounds
Number only, in %; omit the unit.

These recorded examples may help you get a feel for the data.
c1ccc2c(-c3ccncc3)c[nH]c2c1 ... 101
O=C1NC(=O)c2c1c1c3ccccc3[nH]c1n1cncc21 ... 108

Could you now look at the following compound, please?
I'd like to know its residual activity. The compound in question is `N#C/C(=C\c1ccc(O)c(O)c1)C(=O)NCc1ccccc1`
96

---

Quick reference for residual activity among some compounds
target: PIM1 (human) (UniProt P11309); test: radiometric filter-binding kinase assay, Kinase HotSpot; details: compound 0.5 µM; ATP 10 µM
Sequence (P11309 whole entry, looked up): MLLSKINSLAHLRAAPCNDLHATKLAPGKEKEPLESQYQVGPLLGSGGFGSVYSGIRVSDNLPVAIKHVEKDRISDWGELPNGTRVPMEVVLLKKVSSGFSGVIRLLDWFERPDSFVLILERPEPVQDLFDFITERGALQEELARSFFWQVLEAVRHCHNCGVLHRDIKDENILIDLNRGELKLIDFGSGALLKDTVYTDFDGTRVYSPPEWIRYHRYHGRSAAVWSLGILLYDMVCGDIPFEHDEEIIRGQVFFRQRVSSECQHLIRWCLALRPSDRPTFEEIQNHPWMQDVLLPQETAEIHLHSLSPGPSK
Number only, in %; omit the unit.

COc1ccc(C(=O)Nc2sc3c(c2C(N)=O)CCCC3)cc1OC ... 98.9
O=C1c2ccccc2-c2nc3nnnn3nc21 ... 94.1

I'd like to know its residual activity. The compound in question is `O=C(c1cc2cc(O)ccc2[nH]1)c1cc2cc(O)ccc2[nH]1`
76.1

`C[C@@H]1CCN(C(=O)CC#N)C[C@@H]1N(C)c1ncnc2[nH]ccc12` ?
102

---

molecular target: UniProtKB Q9H1R3; experiment: radiometric filter-binding kinase assay, Kinase HotSpot; settings: compound 0.5 µM; ATP 10 µM
Sequence (Q9H1R3 whole entry, looked up): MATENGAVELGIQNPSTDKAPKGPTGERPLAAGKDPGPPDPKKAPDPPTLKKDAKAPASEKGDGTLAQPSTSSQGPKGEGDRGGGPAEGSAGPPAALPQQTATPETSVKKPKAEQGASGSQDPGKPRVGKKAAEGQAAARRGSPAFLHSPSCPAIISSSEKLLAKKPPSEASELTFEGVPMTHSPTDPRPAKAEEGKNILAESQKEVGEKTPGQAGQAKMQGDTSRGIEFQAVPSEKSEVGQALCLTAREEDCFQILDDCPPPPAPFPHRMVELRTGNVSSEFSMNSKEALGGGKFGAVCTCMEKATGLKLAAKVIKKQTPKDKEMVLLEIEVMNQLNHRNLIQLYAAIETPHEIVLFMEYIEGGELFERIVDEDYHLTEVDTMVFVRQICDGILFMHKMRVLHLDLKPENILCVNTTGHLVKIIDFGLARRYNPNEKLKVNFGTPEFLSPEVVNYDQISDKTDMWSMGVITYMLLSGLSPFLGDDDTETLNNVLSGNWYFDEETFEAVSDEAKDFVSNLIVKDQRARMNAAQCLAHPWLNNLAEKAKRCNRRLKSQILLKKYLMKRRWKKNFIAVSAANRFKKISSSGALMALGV
Quick reference for residual activity among some molecules
Record the result as a number with its unit.

CN(C)c1ccc(/C=C2\C(=O)Nc3ccccc32)cc1 ... 82.6%
COc1ccc(C(=O)Nc2sc3c(c2C(N)=O)CCCC3)cc1OC ... 94.4%
C[C@@H]1CCN(C(=O)CC#N)C[C@@H]1N(C)c1ncnc2[nH]ccc12 ... 99%
Cc1cccc(-c2nc(C(C)(C)C)[nH]c2-c2ccc3c(c2)OCO3)n1 ... 99.2%

I'd like to know its residual activity. The molecule in question is `COc1ccc2c(c1)c(C1=C(c3c[nH]c4ccccc34)C(=O)NC1=O)cn2CCCN(C)C`
96%

`COc1ccc(S(=O)(=O)N(CCO)c2ccccc2CN(C)C/C=C/c2ccc(Cl)cc2)cc1` ?
97.8%

`COc1cc2ncnc(Nc3ccc(Oc4ccccc4)cc3)c2cc1OC` ?
101%

`CN(C)S(=O)(=O)c1ccc2c(c1)/C(=C/c1cc3c([nH]1)CCCC3)C(=O)N2` ?
97.9%

---

molecular target: UniProt P16591; experiment: radiometric filter-binding kinase assay, Kinase HotSpot; settings: compound 0.5 µM; ATP 10 µM
Sequence (P16591 whole entry, looked up): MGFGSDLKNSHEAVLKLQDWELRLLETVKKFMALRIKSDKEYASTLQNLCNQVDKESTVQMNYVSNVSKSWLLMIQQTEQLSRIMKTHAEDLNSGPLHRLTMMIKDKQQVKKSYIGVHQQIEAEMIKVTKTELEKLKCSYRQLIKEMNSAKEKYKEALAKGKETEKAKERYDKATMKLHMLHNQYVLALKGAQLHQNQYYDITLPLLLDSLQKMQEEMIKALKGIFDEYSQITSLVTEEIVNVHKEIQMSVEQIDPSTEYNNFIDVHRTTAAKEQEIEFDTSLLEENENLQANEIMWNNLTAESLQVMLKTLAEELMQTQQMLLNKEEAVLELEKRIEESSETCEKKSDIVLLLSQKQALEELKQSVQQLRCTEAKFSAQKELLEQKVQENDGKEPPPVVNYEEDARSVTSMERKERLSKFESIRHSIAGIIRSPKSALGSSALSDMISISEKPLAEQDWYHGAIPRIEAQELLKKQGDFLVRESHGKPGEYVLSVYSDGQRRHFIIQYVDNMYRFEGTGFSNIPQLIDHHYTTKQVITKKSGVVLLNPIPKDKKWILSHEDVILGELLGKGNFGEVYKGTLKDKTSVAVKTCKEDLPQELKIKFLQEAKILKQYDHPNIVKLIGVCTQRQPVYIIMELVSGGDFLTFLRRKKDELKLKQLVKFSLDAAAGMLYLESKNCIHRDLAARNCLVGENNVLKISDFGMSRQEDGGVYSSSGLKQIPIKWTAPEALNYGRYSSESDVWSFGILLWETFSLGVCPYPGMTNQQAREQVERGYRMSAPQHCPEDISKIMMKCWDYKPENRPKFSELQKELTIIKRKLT
# note: boundary value 90% maps to 0; residual activity below it maps to 1

Known results for compounds:
O=C(c1cc2cc(O)ccc2[nH]1)c1cc2cc(O)ccc2[nH]1 ... 1
COc1cc(Nc2c(C#N)cnc3cc(OCCCN4CCN(C)CC4)c(OC)cc23)c(Cl)cc1Cl ... 1
CS(=O)(=O)CCNCc1ccc(-c2ccc3ncnc(Nc4ccc(OCc5cccc(F)c5)c(Cl)c4)c3c2)o1 ... 0
CN(C)CCCn1cc(C2=C(c3c[nH]c4ccccc34)C(=O)NC2=O)c2ccccc21 ... 1
CCCCc1c(-c2ccc(OC)cc2)[nH]c2nccnc12 ... 1
NC(=O)c1cccc(-c2cc(Nc3ccc(OC(F)(F)F)cc3)ncn2)c1 ... 0
N#Cc1c[nH]c2c[nH]/c(=N\Cc3cccnc3)cc2/c1=N\c1ccc(F)c(Cl)c1 ... 1
Cc1nc(-c2ccccc2)c(-c2ccncc2)o1 ... 1

Lab note: residual activity threshold 90%. Does this compound come in strictly under it? `N#C/C(=C\c1ccc(O)c(O)c1)C(=O)NCc1ccccc1`
1

`CC(C)(C)c1cc(C=C(C#N)C#N)cc(Br)c1O` ?
0

`COc1ccc2c(c1)c(C1=C(c3c[nH]c4ccccc34)C(=O)NC1=O)cn2CCCN(C)C` ?
1
